Listing of recorded GG/F by entry.
Target: FTase (Homo sapiens)
Construct: FTase and GGTase I activities from 60,000×g supernatants of human Burkitt lymphoma (Daudi) cells; endogenous in cells; host or cells: human Burkitt lymphoma (Daudi) cells, 60,000xg supernatant (partially purified)
Sequence (P49356 whole entry): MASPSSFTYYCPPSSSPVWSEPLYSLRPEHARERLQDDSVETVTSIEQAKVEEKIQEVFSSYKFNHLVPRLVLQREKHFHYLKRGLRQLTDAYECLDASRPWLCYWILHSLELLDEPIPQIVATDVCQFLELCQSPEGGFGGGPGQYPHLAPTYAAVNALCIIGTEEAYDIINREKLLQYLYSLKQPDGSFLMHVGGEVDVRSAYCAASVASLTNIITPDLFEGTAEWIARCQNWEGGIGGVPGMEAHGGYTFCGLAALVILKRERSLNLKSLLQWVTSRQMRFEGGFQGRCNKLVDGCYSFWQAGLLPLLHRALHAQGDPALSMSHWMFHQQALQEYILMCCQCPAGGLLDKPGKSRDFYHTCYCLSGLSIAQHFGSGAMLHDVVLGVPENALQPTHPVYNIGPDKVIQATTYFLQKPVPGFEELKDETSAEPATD
Assay: FTase activity assay: transfer of [3H]farnesyl from FPP to recombinant H-Ras-CVLS, Daudi 60,000xg supernatant
Assay type: biochemical
Details: Table 1; ratio GGTase I IC50 / FTase IC50
// return a plain number; no unit text

{"columns": ["compound", "GG/F"],
 "data": [
  ["CSCC[C@H](NC(=O)c1ccc(NC(=O)[C@@H](N)CS)cc1-c1cc(C)cc(C)c1)C(=O)O.O=C(O)C(F)(F)F [FTI-275]", 1],
  ["CSCC[C@H](NC(=O)c1ccc(NC(=O)[C@@H](N)CS)cc1-c1ccccc1)C(=O)O.O=C(O)C(F)(F)F [FTI-272]", 53]
]}

Attention now shifts to the item below.
Data request: // fetch FTase (Homo sapiens) GG/F for COC(=O)[C@H](CCSC)NC(=O)c1ccc(NC[C@@H](N)CS)cc1 [FTI-254]
Data returned: 19
